Biological target: T1, ERCC192-214 (central domain of ERCC1, N-terminal His6 tag)
T1 construct: 15N-labeled (and perdeuterated) in some NMR experiments
T1 chain: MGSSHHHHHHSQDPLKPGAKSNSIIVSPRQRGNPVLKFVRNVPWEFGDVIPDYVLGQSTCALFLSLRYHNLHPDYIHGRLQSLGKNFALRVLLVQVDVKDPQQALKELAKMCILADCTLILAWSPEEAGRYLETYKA
Assay: 15N HSQC of the ERCC1-XPA complex, slow-exchange regime
endpoint name: Kd

Looking up KIIDTGGGFILEEE (Synthetic peptide made by solid phase methods, residues 67-80 of XPA; also called XPA peptide; synthetic XPA fragment) [XPA67-80 peptide] , I see its Kd listed as < 1000 nM
